binding normalized to PSGL-1 for assorted binders
measured_target: T1, Sulfotyrosine CCR2b biotin peptide (human)
T1 construct: also called CCR2b peptide
T1 peptide: TTFFD[sY]D[sY]GAPSHGGK(Biotin)
method_notes: ELISA, 50 nM mAb
Non-standard residues stand in square brackets, D forms with d. No end group written: not given here. *: point of attachment. Biotin = O=C1N[C@H]2[C@H](CS[C@H]2CCCCC(=O)*)N1; sY = N[C@@H](Cc1ccc(OS(=O)(=O)O)cc1)C(=O)O
outcome_measure: binding normalized to PSGL-1

>  <binder>
03D07 (antibody, IgG4, V domains shown) VH: EVKLLESGGGLVQPGGSLRLSCAASGFTFSSYALSWVRQAPGKGLEWVSAISGSGGNTYYADSVKGRFTISRDNSKNTLYLQMNSLRAEDTAVYYCAKVVGATNYWGQGTLVTVSS VL: DIVMTQTPLSLPVTLGQPASISCRSSQSLVYSDGHTYLSWFHQRPGQSPRRLIYKVSIRDSGVPDRFSGSGSGTDFTLKISRVEAEDVGVYYCMQRLQIPLTFGGGTKVEIK

>  <experimental_value>
0.16

$$$$
>  <binder>
03B03 (antibody, IgG4, V domains shown) VH: EVQLVQSGGGLVQPGGSLRLSCAATGFTVSRNYMTWVREAPGKGLEWVAGIYKSGTTSYTESVKGRFTISRDNSKNTLYLEMSRLRAEDTAVYYCAKSTSTWGQGTQVTVSS VL: DIVMTQSPLSLPVTLGQPASISCRASQSPGYSDGNTYLNWFQQRPGQSPRRLIYKVSNRDPGVPDRFSGSGSGTDFTLKISRVEAEDVGVYYCMQATHWPSFGQGTRLEIK

>  <experimental_value>
0.89

$$$$
>  <binder>
2E12 (antibody, V domains shown, Mouse hybridoma mAb; only variable domains given) VH: QVQLQQSGAELARPGASVKLSCKASGYTFTNYGLNWVKQRTGQGLEWIGEIYPRSGNTYYNEKFKGKATLTADKSSSTAYMQLSSLTSEDSAVYFCATEGAYWGQGTLVTVSA VL: DIVMTQTPLTLSVTIGQPASISCKSSQSLLHGNGKTYLNWLLQRPGQSPKLLIYLVSKLESGIPDRFSGSGSGTDFTLEISRVEAEDLGIYYCLQSTHFPRTFGGGTKLEIK

>  <experimental_value>
0.03

$$$$
